Test: Cytotoxicity against mouse betaTC3 cells assessed as cell viability at 25 uM after 24 hrs by MTT assay relative to control
Type: cell-based, Beta-TC3
Conditions: read-out: Activity
Output TRUE for records whose viability at 24 h, 25 µM is lower than 70%, FALSE for records at or above 70%.

Record excerpt, results attached:
Compound	Classification
CCCCCCCCCCCC(=O)OCC(COP(=O)([S-])OCC[N+](C)(C)C)OC (racemic)	FALSE
CCCCCCCCCCCCCC(=O)OC[C@@H](O)COP(=O)([O-])OCC[N+](C)(C)C	TRUE
CCCCCCCCCCCCCC(=O)OCC(COP(=S)([S-])OCC[N+](C)(C)C)OC (racemic)	TRUE
CCCCCCCC/C=C\CCCCCCCC(=O)OCC(COP(=O)([S-])OCC[N+](C)(C)C)OC (racemic)	FALSE
CCCCCCCCCCCCCCCC(=O)OCC(COP(=O)([S-])OCC[N+](C)(C)C)OC (racemic)	TRUE

Now look at this entry.
Threshold test, viability at 24 h, 25 µM < 70%: CCCCCCCCCCCCCCCC(=O)OC[C@@H](O)COP(=O)([O-])OCC[N+](C)(C)C
TRUE
